# System: HepG2
# TEST_NAME: Antiproliferative activity against human HepG2 cells after 48 hrs by MTT assay
# Format: functional, cell-based
# CONDITIONS: HepG2, 48 h
pIC50: −log10 of the molar value.
QUANTITY_MEASURED: pIC50

Below, 8 compounds whose answers are already recorded.
>>> result("COC(C)(C)CCC[C@@](C)(O)[C@H]1CC[C@]2(C)[C@@H]1[C@H](O)C[C@@H]1[C@@]3(C)CC[C@H](OC(=O)/C=C/c4ccccc4)C(C)(C)[C@@H]3CC[C@]12C")
4.58
>>> result("COC(C)(C)CCC[C@@](C)(O)[C@H]1CC[C@]2(C)[C@@H]1[C@H](OC(=O)c1ccccc1)C[C@@H]1[C@@]3(C)CC[C@H](OC(=O)c4ccccc4)C(C)(C)[C@@H]3CC[C@]12C")
"< 4.30"
>>> result("COC(C)(C)CCC[C@@](C)(O)[C@H]1CC[C@]2(C)[C@@H]1[C@H](O)C[C@@H]1[C@@]3(C)CC[C@H](OC(=O)c4ccccc4I)C(C)(C)[C@@H]3CC[C@]12C")
4.41
>>> result("COC(C)(C)CCC[C@@](C)(O)[C@H]1CC[C@]2(C)[C@@H]1[C@H](O)C[C@@H]1[C@@]3(C)CC[C@H](OC(=O)c4ccc(F)cc4)C(C)(C)[C@@H]3CC[C@]12C")
5.07
>>> result("COC(C)(C)CCC[C@@](C)(O)[C@H]1CC[C@]2(C)[C@@H]1[C@H](OC(=O)c1ccccc1C)C[C@@H]1[C@@]3(C)CC[C@H](O)C(C)(C)[C@@H]3CC[C@]12C")
"< 4.30"
>>> result("COC(C)(C)CCC[C@@](C)(O)[C@H]1CC[C@]2(C)[C@@H]1[C@H](OC(=O)c1cc(F)ccc1Br)C[C@@H]1[C@@]3(C)CC[C@H](OC(=O)c4cc(F)ccc4Br)C(C)(C)[C@@H]3CC[C@]12C")
"< 4.30"
>>> result("COC(C)(C)CCC[C@@](C)(O)[C@H]1CC[C@]2(C)[C@@H]1[C@H](OC(=O)c1cc(C)cc(C)c1)C[C@@H]1[C@@]3(C)CC[C@H](OC(=O)c4cc(C)cc(C)c4)C(C)(C)[C@@H]3CC[C@]12C")
"< 4.30"
>>> result("COC(C)(C)CCC[C@@](C)(O)[C@H]1CC[C@]2(C)[C@@H]1[C@H](OC(=O)c1cc(I)ccc1Cl)C[C@@H]1[C@@]3(C)CC[C@H](OC(=O)c4cc(I)ccc4Cl)C(C)(C)[C@@H]3CC[C@]12C")
"< 4.30"

Shift focus to the following entry.
Query: # value lookup — system HepG2, readout pIC50, item `COC(C)(C)CCC[C@@](C)(O)[C@H]1CC[C@]2(C)[C@@H]1[C@H](OC(=O)c1ccccc1)C[C@@H]1[C@@]3(C)CC[C@H](O)C(C)(C)[C@@H]3CC[C@]12C`
Result: < 4.30

====

Below, each entry is listed alongside its reported IC50.
# System: PC-3
# TEST_NAME: Antiproliferative activity against human PC3 cells after 48 hrs by MTT assay
# Format: functional, cell-based
# CONDITIONS: PC-3, 48 h

Example entries and their recorded answers appear below.
>>> result("COC(C)(C)CCC[C@@](C)(O)[C@H]1CC[C@]2(C)[C@@H]1[C@H](OC(=O)c1cc(C)cc(C)c1)C[C@@H]1[C@@]3(C)CC[C@H](OC(=O)c4cc(C)cc(C)c4)C(C)(C)[C@@H]3CC[C@]12C")
"> 50 µM"
>>> result("COC(C)(C)CCC[C@@](C)(O)[C@H]1CC[C@]2(C)[C@@H]1[C@H](OC(=O)/C=C/c1ccccc1)C[C@@H]1[C@@]3(C)CC[C@H](O)C(C)(C)[C@@H]3CC[C@]12C")
"> 50 µM"
>>> result("COC(C)(C)CCC[C@@](C)(O)[C@H]1CC[C@]2(C)[C@@H]1[C@H](OC(=O)c1ccc([N+](=O)[O-])cc1)C[C@@H]1[C@@]3(C)CC[C@H](OC(=O)c4ccc([N+](=O)[O-])cc4)C(C)(C)[C@@H]3CC[C@]12C")
"> 50 µM"

Below: the item to evaluate.
Query: Request the reported IC50 associated with `COC(C)(C)CCC[C@@](C)(O)[C@H]1CC[C@]2(C)[C@@H]1[C@H](O)C[C@@H]1[C@@]3(C)CC[C@H](OC(=O)c4cc(Br)cc(Br)c4)C(C)(C)[C@@H]3CC[C@]12C`
Result: 38.4 µM

====

As shown below, each of these compounds has a reported pIC50 value.
# Test system: PC-3
# TEST_NAME: Antiproliferative activity against human PC3 cells after 48 hrs by MTT assay
# Type: functional, cell-based
# CONDITIONS: PC-3, 48 h
The meaning of pIC50 here: minus log10 of the concentration in molar units.

Field: example entries. Status: answers known.
>>> recorded_number("COC(C)(C)CCC[C@@](C)(O)[C@H]1CC[C@]2(C)[C@@H]1[C@H](O)C[C@@H]1[C@@]3(C)CC[C@H](OC(=O)c4ccc(Cl)cc4)C(C)(C)[C@@H]3CC[C@]12C")
4.55
>>> recorded_number("COC(C)(C)CCC[C@@](C)(O)[C@H]1CC[C@]2(C)[C@@H]1[C@H](O)C[C@@H]1[C@@]3(C)CC[C@H](OC(=O)c4ccccc4[N+](=O)[O-])C(C)(C)[C@@H]3CC[C@]12C")
4.83
>>> recorded_number("COC(C)(C)CCC[C@@](C)(O)[C@H]1CC[C@]2(C)[C@@H]1[C@H](O)C[C@@H]1[C@@]3(C)CC[C@H](OC(=O)c4ccccc4I)C(C)(C)[C@@H]3CC[C@]12C")
4.33
>>> recorded_number("COC(C)(C)CCC[C@@](C)(O)[C@H]1CC[C@]2(C)[C@@H]1[C@H](O)C[C@@H]1[C@@]3(C)CC[C@H](OC(=O)c4cc([N+](=O)[O-])cc([N+](=O)[O-])c4)C(C)(C)[C@@H]3CC[C@]12C")
5.12

Proceed to the following item.
Query: Please look up its pIC50: `COC(C)(C)CCC[C@@](C)(O)[C@H]1CC[C@]2(C)[C@@H]1[C@H](O)C[C@@H]1[C@@]3(C)CC[C@H](OC(=O)/C=C/c4ccc(F)cc4)C(C)(C)[C@@H]3CC[C@]12C`
Result: 4.75

====

# Test system: BGC-823
# TEST_NAME: Antiproliferative activity against human BGC823 cells after 48 hrs by MTT assay
# Assay type: functional, cell-based
# CONDITIONS: BGC-823, 48 h
QUANTITY_MEASURED: pIC50
Please report pIC50 as the negative decimal logarithm of the molar concentration, giving only the number.

Query: Recorded pIC50 for `COC(C)(C)CCC[C@@](C)(O)[C@H]1CC[C@]2(C)[C@@H]1[C@H](O)C[C@@H]1[C@@]3(C)CC[C@H](OC(=O)c4ccc(Br)cc4)C(C)(C)[C@@H]3CC[C@]12C` , please?
Result: 4.58

====

# Test system: HepG2
# TEST_NAME: Antiproliferative activity against human HepG2 cells after 48 hrs by MTT assay
# Format: functional, cell-based
# CONDITIONS: HepG2, 48 h
QUANTITY_MEASURED: IC50
Could you give the number and then its unit, please?

Look over these answered cases.
>>> result("COC(C)(C)CCC[C@@](C)(O)[C@H]1CC[C@]2(C)[C@@H]1[C@H](O)C[C@@H]1[C@@]3(C)CC[C@H](OC(=O)c4ccc(F)cc4F)C(C)(C)[C@@H]3CC[C@]12C")
"5.8 µM"
>>> result("COC(C)(C)CCC[C@@](C)(O)[C@H]1CC[C@]2(C)[C@@H]1[C@H](O)C[C@@H]1[C@@]3(C)CC[C@H](OC(=O)c4ccc(Cl)cc4)C(C)(C)[C@@H]3CC[C@]12C")
"25.7 µM"

--- query ---
Query: Entry `COC(C)(C)CCC[C@@](C)(O)[C@H]1CC[C@]2(C)[C@@H]1[C@H](O)C[C@@H]1[C@@]3(C)CC[C@H](OC(=O)c4ccccc4[N+](=O)[O-])C(C)(C)[C@@H]3CC[C@]12C` : reported IC50 = ?
Result: 12 µM

====

# System: BGC-823
# TEST_NAME: Antiproliferative activity against human BGC823 cells after 48 hrs by MTT assay
# Type: functional, cell-based
# CONDITIONS: BGC-823, 48 h
QUANTITY_MEASURED: IC50

Query: Which measured IC50 value corresponds to `COC(C)(C)CCC[C@@](C)(O)[C@H]1CC[C@]2(C)[C@@H]1[C@H](O)C[C@@H]1[C@@]3(C)CC[C@H](OC(=O)c4cc(Br)cc(Br)c4)C(C)(C)[C@@H]3CC[C@]12C` ?
Result: 36.1 µM

Query: Could you tell me which IC50 is on file for `COC(C)(C)CCC[C@@](C)(O)[C@H]1CC[C@]2(C)[C@@H]1[C@H](O)C[C@@H]1[C@@]3(C)CC[C@H](OC(=O)c4ccc(I)cc4)C(C)(C)[C@@H]3CC[C@]12C` ?
Result: > 50 µM

Query: For the compound shown here, `COC(C)(C)CCC[C@@](C)(O)[C@H]1CC[C@]2(C)[C@@H]1[C@H](OC(=O)/C=C/c1ccccc1)C[C@@H]1[C@@]3(C)CC[C@H](O)C(C)(C)[C@@H]3CC[C@]12C` , give the reported IC50.
Result: > 50 µM

Query: Quick check: IC50 of `COC(C)(C)CCC[C@@](C)(O)[C@H]1CC[C@]2(C)[C@@H]1[C@H](OC(=O)c1ccc(Br)cc1)C[C@@H]1[C@@]3(C)CC[C@H](O)C(C)(C)[C@@H]3CC[C@]12C` ?
Result: > 50 µM
